# protocol.description: Human clinical plasma pharmacokinetics, single or multiple doses of 200 mg
# Format: in vivo, humans
# particulars: human, plasma, po, 200 mg, 200 mg oral, Day 1, single dose
attribute.measured: Cmax (ng/mL)
Give just the number in ng/mL; leave the unit off.

**Query** Reported Cmax for COc1cc(/C=C/C(=O)Nc2ccccc2C(=O)O)ccc1OC(F)F : what is it?
**Result** 32800

----------
# protocol.description: Human clinical plasma pharmacokinetics, single or multiple doses of 200 mg
# Assay type: in vivo, humans
# particulars: human, plasma, po, 200 mg, 200 mg oral, Day 14, multiple dose
attribute.measured: Cmax
Include the unit right after the number.

**Query** What Cmax value was documented for this molecule, COc1cc(/C=C/C(=O)Nc2ccccc2C(=O)O)ccc1OC(F)F ?
**Result** 67.6 µg/mL

----------
# protocol.description: Human clinical plasma pharmacokinetics, single or multiple doses of 200 mg
# Assay type: in vivo, humans
# particulars: human, plasma, po, 200 mg, 200 mg oral, Day 1, single dose, read-out: T ½ (converted)
# Procedure: Clinical pharmacokinetic studies were also conducted on volunteers who received a single dose or multiple doses of 200 mg (E)-2-[[3-Methoxy-4-(difluoromethoxy)phenyl-1-oxo-2-propenyl]amino] benzoic acid administered as powder-in-capsule. […] The concentration of (E)-2-[[3-Methoxy-4-(difluoromethoxy)phenyl-1-oxo-2-propenyl]amino]benzoic acid in plasma was determined using a validated LC-MS/MS method. […]
attribute.measured: half-life (h)
# output: bare number, implied unit h

**Query** May I ask what half-life has been recorded for COc1cc(/C=C/C(=O)Nc2ccccc2C(=O)O)ccc1OC(F)F ?
**Result** 9.6

----------
# protocol.description: Rabbit plasma and ocular tissue steady state pharmacokinetics, 8 daily oral doses
# Type: in vivo, Dutch Belted pigmented rabbits
# particulars: male, Dutch Belted; rabbit Choroid-RPE, 100 mg/kg/day oral, Day 8
attribute.measured: Cmax (ng/g)
The reply should be a number in ng/g, with the unit left off.

**Query** Would you mind telling me what Cmax value was observed for COc1cc(/C=C/C(=O)Nc2ccccc2C(=O)O)ccc1OC(F)F ?
**Result** 12300

----------
# protocol.description: Human Phase I clinical trial plasma pharmacokinetics, single 50 mg dose
# Type: in vivo, humans
# particulars: male, 50 mg single oral dose, powder-in-capsule
attribute.measured: Cmax
Don't forget the unit after the number, please.

**Query** Recorded Cmax for COc1cc(/C=C/C(=O)Nc2ccccc2C(=O)O)ccc1OC(F)F , please?
**Result** 8740 ng/mL

----------
# protocol.description: Rabbit plasma and ocular tissue steady state pharmacokinetics, 8 daily oral doses
# Assay type: in vivo, Dutch Belted pigmented rabbits
# particulars: male, Dutch Belted; rabbit Retina, 50 mg/kg/day oral, Day 8; read-out: Tmax
attribute.measured: Tmax (h)
Record the value in h, omitting the unit from your answer.

**Query** // query Tmax value for entry COc1cc(/C=C/C(=O)Nc2ccccc2C(=O)O)ccc1OC(F)F
**Result** 1

----------
# protocol.description: Rabbit plasma and ocular tissue steady state pharmacokinetics, 8 daily oral doses
# Format: in vivo, Dutch Belted pigmented rabbits
# particulars: male, Dutch Belted; rabbit Plasma, 100 mg/kg/day oral, Day 8; read-out: Tmax
attribute.measured: Tmax

**Query** Which Tmax reading was recorded for the compound COc1cc(/C=C/C(=O)Nc2ccccc2C(=O)O)ccc1OC(F)F ?
**Result** 2 h

----------
# protocol.description: Dog plasma pharmacokinetic study, single daily dose for 28 days, plasma on first day of dosing
# Format: in vivo, Beagle dogs
# particulars: beagle, 25 mg/kg, read-out: elimination half-life (converted)
# Description: Beagle dogs were administered a single daily dose of (E)-2-[[3-Methoxy-4-(difluoromethoxy)phenyl-1-oxo-2-propenyl]amino]benzoic at 25, 50 or 100 mg/kg for 28 consecutive days. Plasma was collected up to 24 hours post-dose on the first day of dosing.
attribute.measured: half-life

**Query** Endpoint output: half-life of COc1cc(/C=C/C(=O)Nc2ccccc2C(=O)O)ccc1OC(F)F . Value?
**Result** 4.3 h

----------
# protocol.description: Human Phase I clinical study, steady state exposure at 50 mg after 14 days dosing
# Assay type: in vivo, humans
# particulars: plasma, oral, Data from Phase I (after 14 days dosing)
attribute.measured: Cmax (ng/mL)
Numeric only. Scale: ng/mL

**Query** I am curious: what Cmax value has been reported for COc1cc(/C=C/C(=O)Nc2ccccc2C(=O)O)ccc1OC(F)F ?
**Result** 6560

----------
# protocol.description: Human Phase I clinical trial plasma pharmacokinetics, single 50 mg dose
# Assay type: in vivo, humans
# particulars: male, 50 mg single oral dose
attribute.measured: AUC(0-inf) (µg·h/mL)
The figure you give is taken to be in µg·h/mL; do not add the unit.

**Query** Look at this compound and give its reported AUC(0-inf). COc1cc(/C=C/C(=O)Nc2ccccc2C(=O)O)ccc1OC(F)F
**Result** 113

----------
# protocol.description: Rabbit plasma and ocular tissue steady state pharmacokinetics, 8 daily oral doses
# Assay type: in vivo, Dutch Belted pigmented rabbits
# particulars: male, Dutch Belted; rabbit Iris Ciliary Body, 50 mg/kg/day oral, Day 8; read-out: Tmax
# Protocol: Male Dutch Belted pigmented rabbits were administered a once daily dose of 50 or 100 mg/kg of (E)-2-[[3-Methoxy-4-(difluoromethoxy)phenyl-1-oxo-2-propenyl]amino]benzoic acid by oral gavage for 8 days. The oral formulation was prepared in 1% carboxymethyl cellulose. […] Concentration values below the lower limit of quantitation were treated as zero for pharmacokinetic analysis. […]
attribute.measured: Tmax
Provide the measurement as a number trailed by its unit.

**Query** Entry COc1cc(/C=C/C(=O)Nc2ccccc2C(=O)O)ccc1OC(F)F : reported Tmax = ?
**Result** 1 h
